Below, each entry is listed alongside its reported normalized growth.
measurement_notes: chemical genetic growth profiling, strain panel (AID 1159580);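 further: tested at 20 µM; growth read once vehicle control cultures reached saturation at 30 °C; 1 = growth at the plate median or of vehicle wells; lower values mean less growth of the strain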
setup_conditions: S. cerevisiae deletion strains, growth OD, locus YIL125W, strain kgd1, hits give low values
Among all 5,500 compounds or so, about 2,000 (36%) were called active. Another 18% or so got no clear call; they are omitted. The list shows a part of the results.
Response field accepts a number only; no unit should be typed.

C=NC(C(=O)NC1C(=O)N2C1SC(C)(C)C2C(=O)O)c1ccccc1 (centres undefined) ... 1.01
COC(=O)[C@@H]1OC(=O)C2OC23[C@@]1(C)CCC1[C@]2(C)C(C[C@@H](O)[C@]13C)C(C)(C)[C@H](OC(C)=O)C[C@@H]2OC(C)=O (some centres undefined) ... 0.997
CC1OC(O[C@H]2/C=C/C=C/C=C/C=C/C=C/C=C/C=C/[C@H](C)[C@@H](O)[C@@H](C)[C@H](C)OC(=O)CC(O)CC(O)CCC(O)C(O)CC(O)C[C@]3(O)C[C@H](O)C(C(=O)O)C(C2)O3)C(O)[C@H](N)C1O (some centres undefined) ... 1.01

Now let's try a different one.
Endpoint output: normalized growth of CN=C(N)NCCCC(N)C(=O)O (centres undefined) . Value?
1.01

###

Below, each entry is listed alongside its reported normalized growth.
measurement_notes: chemical genetic growth profiling, strain panel (AID 1159580);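 further: tested at 20 µM; growth read once vehicle control cultures reached saturation at 30 °C; 1 = growth at the plate median or of vehicle wells; lower values mean less growth of the strain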
setup_conditions: S. cerevisiae deletion strains, growth OD, locus YGL227W, strain vid30, hits give low values
The campaign covered roughly 5,500 compounds. About 2,000 (36%) were called active. Not shown: some 18% with an inconclusive outcome. Some of the results follow.
Response field accepts a number only; no unit should be typed.

CC(=O)O[C@]1(C)CC[C@@]23CC1C(C)(C)[C@@H]2CC[C@H]3C ... 0.969

Endpoint output: normalized growth of C=NC(C(=O)NC1C(=O)N2C1SC(C)(C)C2C(=O)O)c1ccccc1 (configuration not stated) . Value?
0.996

Please do the same for C[C@@H]1CC2C3CCC4=CC(=O)C=C[C@]4(C)[C@@]3(F)[C@@H](O)C[C@]2(C)[C@@]1(O)C(=O)CO (some centres not stated) as well.
0.987

Please do the same for COc1ccc2c(c1)OCC(Cc1ccc(OC)c(OC(C)=O)c1)C2=O (configuration not stated) as well.
0.979

Please do the same for COC(=O)[C@H](c1ccccc1Cl)N1CCc2sccc2C1 as well.
0.988

Please do the same for CC1[C@H](C)OC(=O)CC(O)CC(O)CC(O)CCC(O)C(O)C[C@]2(O)CC(O)C(C(=O)O)C(CC(OC3O[C@H](C)[C@@H](O)[C@H](N)[C@@H]3O)/C=C/C=C/C=C/C=C/CC/C=C/C=C/[C@H](C)[C@H]1O)O2 (some centres not stated) as well.
0.061

###

measurement_notes: chemical genetic growth profiling, strain panel (AID 1159580);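 further: tested at 20 µM; growth read once vehicle control cultures reached saturation at 30 °C; 1 = growth at the plate median or of vehicle wells; lower values mean less growth of the strain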
setup_conditions: S. cerevisiae deletion strains, growth OD, locus YCL069W, strain vba3
In all, about 5,500 compounds went through this assay and about 2,000 (36%) were called active. Another 18% or so got no clear call; they are omitted. Rule as the data show it: active = normalized growth mostly below about 0.91 (no sharp cut-off); inconclusive = no clear call, values can overlap the other calls; inactive = mostly above about 0.92. This is one part of the list.
Thanks in advance; please answer with one of these: active, inactive

Use these answered entries as a reference point.
Cc1ccc(C(=O)c2ccc(CC(=O)O)n2C)cc1 ... inactive
CC1[C@H](C)OC(=O)CC(O)CC(O)CC(O)CCC(O)C(O)C[C@]2(O)CC(O)C(C(=O)O)C(CC(OC3O[C@H](C)[C@@H](O)[C@H](N)[C@@H]3O)/C=C/C=C/C=C/C=C/CC/C=C/C=C/[C@H](C)[C@H]1O)O2 (stereo partly drawn) ... active
CN(C/C=C/C#CC(C)(C)C)Cc1cccc2ccccc12 ... active

Assay result, entry NC(=O)CS(=O)C(c1ccccc1)c1ccccc1 (stereo not drawn) — outcome?
inactive

Please do the same for CC1C/C=C/C=C/C=C/C=C/C(O[C@@H]2O[C@H](C)[C@@H](O)[C@H](N)[C@@H]2O)CC2OC(O)(CC(O)CC3OC3/C=C/C(=O)O1)CC(O)C2C(=O)O (stereo partly drawn) as well.
inactive

Please do the same for CN(C)CCC(c1ccccc1)c1ccccn1 (stereo not drawn) as well.
inactive

Please do the same for CCCCCCCCCCCCCC(=O)OC1C(C)C2(O)C(C=C(CO)CC3(O)C(=O)C(C)=CC32)C2C(C)(C)C12OC(C)=O (stereo not drawn) as well.
inactive

Please do the same for Oc1c(Cl)cc(Cl)c(Cl)c1Cc1c(O)c(Cl)cc(Cl)c1Cl as well.
active
